assay: Solubility screening of the compound of Formula IV (freebase) in solvent mixtures; assay type: physicochemical; conditions: organic solvent or mixture; Methanol, approximately 25° C.
measurement_kind: solubility

Enquiry: So what does the record say about solubility for CC(C)(O)COc1cc(-c2ccc(N3CCC(O)(Cc4ccccn4)CC3)nc2)c2c(C#N)cnn2c1 ?
Return: > 74 mg/mL

====

assay: Solvent solubility screen of the compound of Formula II; format: physicochemical; conditions: 40 °C, organic solvent or mixture, thermodynamic from solid; Anisole; (P) partial solubility at 100 volumes; read-out: Approximate solubility
measurement_kind: solubility

Enquiry: For the compound COc1ccc(CN2C3CC2CN(c2ccc(-c4cc(OCC(C)(C)O)cn5ncc(C#N)c45)cn2)C3)cn1 , what solubility is on record?
Return: < 5000 µg/mL

====

assay: Solubility of the free base of the compound of Formula I in solvents and mixed solvent systems; assay type: physicochemical; conditions: 25 °C, organic solvent or mixture, thermodynamic from solid; 50% DMSO in EtOH, room temperature; read-out: Solubility
measurement_kind: solubility (µg/mL)
// return numeric value only (unit: µg/mL, not printed)

Enquiry: Consider the molecule COc1ccc(CN2CCN(c3ccc(-c4cc(-c5cnn(C)c5)cn5ncc(C#N)c45)cn3)CC2)cn1 [freebase of the compound of Formula I] and give its measured solubility.
Return: 1140

====

Assay: Solvent solubility screen of the compound of Formula II
Assay type: physicochemical
Details: MEK, 40 °C, organic solvent or mixture, thermodynamic from solid; read-out: Approximate solubility
Description: A solvent solubility screen was conducted in 32 solvent systems as follows. Between each addition, the mixture was checked for dissolution. If no dissolution was apparent, the mixture was heated to around 40° C. and checked again. This procedure was continued until dissolution was observed or until 100 volumes of solvent had been added. Undissolved material from the solubility screen was isolated and analyzed by XRPD.
measurement_kind: solubility

Enquiry: Please give the measured solubility for this compound: COc1ccc(CN2C3CC2CN(c2ccc(-c4cc(OCC(C)(C)O)cn5ncc(C#N)c45)cn2)C3)cn1 [compound of Formula II]
Return: < 5000 µg/mL

====

test: Solubility of the free base of the compound of Formula I in solvents and mixed solvent systems; format: physicochemical; conditions: water, 25 °C, water, thermodynamic from solid; read-out: Solubility at 25° C.
measurement_kind: solubility (µg/mL)
Value expressed in µg/mL; do not type the unit.

Enquiry: Entry under review: COc1ccc(CN2CCN(c3ccc(-c4cc(-c5cnn(C)c5)cn5ncc(C#N)c45)cn3)CC2)cn1 [freebase of the compound of Formula I] . Reported solubility?
Return: 70

====

experiment: Solubility screening of the compound of Formula IV (freebase) in solvent mixtures; format: physicochemical; conditions: organic solvent or mixture; Acetone, approximately 25° C.
measurement_kind: solubility (mg/mL)
The reply should contain only the number, in mg/mL.

Enquiry: Quick check: solubility of CC(C)(O)COc1cc(-c2ccc(N3CCC(O)(Cc4ccccn4)CC3)nc2)c2c(C#N)cnn2c1 ?
Return: 42.9

====

experiment: Solubility of the free base of the compound of Formula I in solvents and mixed solvent systems; assay type: physicochemical; settings: acetone, 25 °C, organic solvent or mixture, thermodynamic from solid; read-out: Solubility at 25° C.
measurement_kind: solubility (µg/mL)
Give a bare numeral; the unit µg/mL is implied.

Enquiry: Returns the measured solubility for the input compound. Input: COc1ccc(CN2CCN(c3ccc(-c4cc(-c5cnn(C)c5)cn5ncc(C#N)c45)cn3)CC2)cn1 [freebase of the compound of Formula I]
Return: 440

Data provenance is patent US10584124B2.
